Sequence of the target: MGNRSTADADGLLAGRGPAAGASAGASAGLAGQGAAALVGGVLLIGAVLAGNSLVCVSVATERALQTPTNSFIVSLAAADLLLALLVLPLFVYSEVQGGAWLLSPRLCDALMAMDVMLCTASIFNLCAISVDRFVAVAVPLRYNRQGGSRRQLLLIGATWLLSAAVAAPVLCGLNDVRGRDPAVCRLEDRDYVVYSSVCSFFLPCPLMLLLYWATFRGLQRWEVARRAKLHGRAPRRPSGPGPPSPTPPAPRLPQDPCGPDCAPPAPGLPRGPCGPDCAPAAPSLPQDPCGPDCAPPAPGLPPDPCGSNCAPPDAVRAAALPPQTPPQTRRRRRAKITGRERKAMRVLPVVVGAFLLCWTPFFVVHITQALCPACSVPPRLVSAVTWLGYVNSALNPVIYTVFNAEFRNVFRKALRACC
READOUT LABEL: pKi
Conceptually, pKi converts a concentration in mol/L into minus its log10.

Task: Dear colleague, I am looking for the recorded pKi of the following compound: Clc1ccc(CN2CCO[C@H](CCc3ccccc3)C2)cc1 [ML398]
Result: 7.44

====

Target chain: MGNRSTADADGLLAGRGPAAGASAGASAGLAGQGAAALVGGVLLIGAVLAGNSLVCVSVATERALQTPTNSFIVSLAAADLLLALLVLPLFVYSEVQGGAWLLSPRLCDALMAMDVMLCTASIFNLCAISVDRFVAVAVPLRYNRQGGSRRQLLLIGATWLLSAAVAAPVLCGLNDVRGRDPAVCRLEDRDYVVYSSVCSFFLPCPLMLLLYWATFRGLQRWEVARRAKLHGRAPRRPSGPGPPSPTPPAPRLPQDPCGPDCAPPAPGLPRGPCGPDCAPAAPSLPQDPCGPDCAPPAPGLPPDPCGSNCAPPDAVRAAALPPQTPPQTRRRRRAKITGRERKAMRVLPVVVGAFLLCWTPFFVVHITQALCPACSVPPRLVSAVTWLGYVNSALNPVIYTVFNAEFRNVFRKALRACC
READOUT LABEL: pIC50
Conceptually, pIC50 converts a concentration in mol/L into minus its log10.

Task: Dear colleague, I am looking for the recorded pIC50 of the following molecule: Clc1ccc(CN2CCO[C@H](CCc3ccccc3)C2)cc1
Result: 6.89

====

Assignment: determine reported CLint scaled for the given compounds.
PROTOCOL: Intrinsic clearance in human liver microsomes
Type: in vitro ADME
RUN CONDITIONS: human, liver microsomes
Please respond with the number in mL/min/kg and leave the unit unwritten.

Task: Dear colleague, I am looking for the recorded CLint scaled of the following compound: COc1ccc(CN2CCO[C@H](COc3ccccc3)C2)cc1Cl [Compound 4n]
Result: 78.7

Task: Dear colleague, I am looking for the recorded CLint scaled of the following compound: Clc1ccc(CN2CCO[C@H](CSc3ccccc3)C2)cc1 [Compound 5aa]
Result: 122

Task: Dear colleague, I am looking for the recorded CLint scaled of the following compound: Cc1ccc(CN2CCO[C@H](CSc3ccccc3)C2)cc1C [Compound 5bb]
Result: 366

Task: Dear colleague, I am looking for the recorded CLint scaled of the following compound: Cn1ncc2cc(CN3CCO[C@H](COc4ccccc4)C3)ccc21 [Compound 4y]
Result: 60.5

Task: Dear colleague, I am looking for the recorded CLint scaled of the following compound: COc1ccc(CN2CCO[C@H](COc3cccc(F)c3)C2)cc1Cl [Compound 5m]
Result: 93

Task: Dear colleague, I am looking for the recorded CLint scaled of the following compound: Fc1cc(CN2CCO[C@H](COc3ccccc3)C2)ccc1Cl [Compound 4g]
Result: 65.3

Task: Dear colleague, I am looking for the recorded CLint scaled of the following compound: COc1ccc(CN2CCO[C@H](COc3ccccc3)C2)cc1F [Compound 4l]
Result: 71.9

Task: Dear colleague, I am looking for the recorded CLint scaled of the following compound: COc1cc(CN2CCO[C@H](COc3ccccc3)C2)ccc1Cl [Compound 4p]
Result: 79.7

Task: Dear colleague, I am looking for the recorded CLint scaled of the following compound: Fc1ccc2c(CN3CCO[C@H](COc4cccc(Cl)n4)C3)c[nH]c2c1 [Compound 5y]
Result: 230

Task: Dear colleague, I am looking for the recorded CLint scaled of the following compound: Clc1ccc(CN2CCO[C@H](COc3ccccc3)C2)cc1 [Compound 4a]
Result: 147

Task: Dear colleague, I am looking for the recorded CLint scaled of the following compound: Clc1ccc2c(CN3CCO[C@H](COc4ccccc4)C3)c[nH]c2c1 [Compound 4aa]
Result: 46.7

Task: Dear colleague, I am looking for the recorded CLint scaled of the following compound: COc1cc(CN2CCO[C@H](COc3cccc(F)c3)C2)ccc1Cl [Compound 5n]
Result: 68.9

Task: Dear colleague, I am looking for the recorded CLint scaled of the following compound: Clc1ccc(CN2CCO[C@H](COc3cccc(Cl)n3)C2)cc1 [Compound 5z]
Result: 98.2

Task: Dear colleague, I am looking for the recorded CLint scaled of the following compound: Fc1ccc2c(CN3CCO[C@H](COc4cccc(F)n4)C3)c[nH]c2c1 [Compound 5u]
Result: 101

Task: Dear colleague, I am looking for the recorded CLint scaled of the following compound: COc1ccc2c(CN3CCO[C@H](COc4ccccc4)C3)c[nH]c2c1 [Compound 4dd]
Result: 31.6

Task: Dear colleague, I am looking for the recorded CLint scaled of the following compound: c1ccc(OC[C@@H]2CN(Cc3ccc4[nH]ccc4c3)CCO2)cc1 [Compound 4z]
Result: 135

Task: Dear colleague, I am looking for the recorded CLint scaled of the following compound: Clc1ccc(CN2CCO[C@H](COc3ccccc3)C2)cc1Cl [Compound 4i]
Result: 50.5

Task: Dear colleague, I am looking for the recorded CLint scaled of the following compound: Fc1cc(CN2CCO[C@H](COc3ccccc3)C2)ccc1C(F)(F)F [Compound 4j]
Result: 50.5

Task: Dear colleague, I am looking for the recorded CLint scaled of the following compound: Fc1ccc2c(CN3CCO[C@H](COc4ccccc4)C3)c[nH]c2c1 [Compound 4ee]
Result: 71.1

Task: Dear colleague, I am looking for the recorded CLint scaled of the following compound: c1ccc(OC[C@@H]2CN(Cc3cn4ccccc4n3)CCO2)cc1 [Compound 4t]
Result: 17.3
